This section presents compounds with their documented % Inhibition TF-VIIa (100 νM) values.
TESTED_ON: recombinant soluble tissue factor and recombinant human factor VIIa (TF-VIIa) (Homo sapiens)
Construct: conversion of coagulation factor VII to VIIa by Xa; purchased American Diagnostica, Greenwich Conn; host or cells: factor VIIa purchased; soluble TF made in house in E. coli
EXPERIMENT_NOTES: TF-VIIa Assay
Assay type: biochemical
CONDITION_LABEL: inhibitor at 100 νM
Give the value in % but do not write % after it.

[[record]]
compound = "COc1ccc(-c2c(Cl)nc(NCc3ccccc3)c(=O)n2CC(=O)NCCc2ccncc2)cc1 [Example E-0097]"
property = "% Inhibition TF-VIIa (100 νM)"
measured_value = 0

[[record]]
compound = "O=C(Cn1c(-c2ccc(Cl)cc2)c(Cl)nc(NCCc2ccncc2)c1=O)NCCc1ccncc1 [Example E-0022]"
property = "% Inhibition TF-VIIa (100 νM)"
measured_value = 0

[[record]]
compound = "O=C(Cn1c(-c2ccccc2)c(Cl)nc(NCCN2CCOCC2)c1=O)NCCc1ccncc1"
property = "% Inhibition TF-VIIa (100 νM)"
measured_value = 0

[[record]]
compound = "O=C(Cn1c(-c2ccccc2)c(Cl)nc(NCCc2cccnc2)c1=O)NCCc1ccncc1"
property = "% Inhibition TF-VIIa (100 νM)"
measured_value = 0

[[record]]
compound = "Cc1c(Cl)nc(NCc2ccncc2)c(=O)n1CC(=O)NCCc1ccncc1"
property = "% Inhibition TF-VIIa (100 νM)"
measured_value = 0

[[record]]
compound = "COc1ccc(-c2c(Cl)nc(NCCc3cccc(Cl)c3)c(=O)n2CC(=O)NCCc2cccnc2)cc1"
property = "% Inhibition TF-VIIa (100 νM)"
measured_value = 3

[[record]]
compound = "O=C(Cn1c(Cc2ccccc2)c(Cl)nc(NCc2ccccc2)c1=O)NCCc1ccncc1"
property = "% Inhibition TF-VIIa (100 νM)"
measured_value = 0

[[record]]
compound = "O=C(Cn1c(-c2cccc(Cl)c2)c(Cl)nc(NCCc2ccccc2)c1=O)NCCc1ccncc1 [Example E-0076]"
property = "% Inhibition TF-VIIa (100 νM)"
measured_value = 0


Query: Dear colleague, please send me the reported % Inhibition TF-VIIa (100 νM) for O=C(Cn1c(-c2cccc(Cl)c2)c(Cl)nc(NCCc2cccc(Cl)c2)c1=O)NCCc1cccnc1 [Example E-0092] when you can.
Response: 1

Query: Dear colleague, please send me the reported % Inhibition TF-VIIa (100 νM) for COc1ccc(-c2c(Cl)nc(NCCc3ccc(Cl)cc3)c(=O)n2CC(=O)NCCc2ccncc2)cc1 [Example E-0106] when you can.
Response: 5

Query: Give % Inhibition TF-VIIa (100 νM) for the following compound: O=C(Cn1c(-c2ccc(Cl)cc2)c(Cl)nc(NCCc2cccnc2)c1=O)NCCc1ccncc1 [Example E-0029]
Response: 0

Query: Determine its reported % Inhibition TF-VIIa (100 νM): Cc1c(Cl)nc(NCCc2cccc(Cl)c2)c(=O)n1CC(=O)NCCc1ccncc1
Response: 0

----------
Item-by-item account of % Inhibition Trpysin II (100 νM)
TESTED_ON: Trypsin (type 1× from porcine pancreas) (Sus scrofa)
Construct: Trypsin (5 ug/ml; type 1× from porcine pancreas); purchased Sigma, St. Louis Mo; host or cells: porcine pancreas
EXPERIMENT_NOTES: Trypsin Assay
Format: biochemical
CONDITION_LABEL: inhibitor at 100 νM

# example entries with known answers
[[record]]
compound = "O=C(Cn1c(-c2cccc(Cl)c2)c(Cl)nc(NCc2ccccc2)c1=O)NCCc1ccncc1 [Example E-0073]"
measured_value = "6%"

[[record]]
compound = "O=C(Cn1c(-c2ccc(Cl)cc2)c(Cl)nc(NCc2ccncc2)c1=O)NCCc1ccncc1 [Example E-0032]"
measured_value = "3%"


Attention now turns to another entry.
Query: Item COc1ccc(-c2c(Cl)nc(NCc3ccncc3)c(=O)n2CC(=O)NCCc2ccncc2)cc1 : provide % Inhibition Trpysin II (100 νM)
Response: 4%

----------
TESTED_ON: Human factor Xa (Homo sapiens, UniProt P00742)
Construct: Human factor Xa (0.3 nM); purchased Enzyme Research Laboratories, South Bend Ind
Sequence (P00742 235-488 limits assumed): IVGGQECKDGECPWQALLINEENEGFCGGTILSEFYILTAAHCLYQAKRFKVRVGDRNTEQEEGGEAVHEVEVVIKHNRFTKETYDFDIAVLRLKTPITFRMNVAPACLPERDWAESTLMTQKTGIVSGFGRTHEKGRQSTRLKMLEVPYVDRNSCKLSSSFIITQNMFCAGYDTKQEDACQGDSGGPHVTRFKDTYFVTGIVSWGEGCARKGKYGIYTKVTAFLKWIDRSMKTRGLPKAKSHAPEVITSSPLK
Sequence (P00742 41-179 limits assumed): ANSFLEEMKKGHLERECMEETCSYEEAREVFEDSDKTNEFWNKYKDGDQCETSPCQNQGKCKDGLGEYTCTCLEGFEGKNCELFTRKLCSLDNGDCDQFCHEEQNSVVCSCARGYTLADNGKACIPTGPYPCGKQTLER
EXPERIMENT_NOTES: Xa Assay
Format: biochemical
CONDITION_LABEL: at 30 µM; cells with % sign, and bare 0
PROPERTY: % Inhibition Factor Xa (30 µM) (%)
Output spec: scalar in %, unitless text.

Here are 2 molecules together with their reported answers.
[[record]]
molecule = "CC(C(=O)NCc1ccc(C(=N)N)cc1)n1c(-c2ccccc2)c(Cl)nc(NCCc2cccc(Cl)c2)c1=O (stereo not drawn) [Example 1517-23]"
measured_value = 0

[[record]]
molecule = "CCN(CC)CC(C)Nc1nc(Cl)c(-c2cccc(N)c2)n(CC(=O)NCc2ccc(C(=N)N)cc2)c1=O (stereo not drawn) [1543-25]"
measured_value = 26


Now take the following molecule into account.
Query: Give recorded % Inhibition Factor Xa (30 µM). CC(C(=O)NCc1ccc(C(=N)N)cc1)n1c(-c2ccccc2)c(Cl)nc(NCc2ccccc2)c1=O (stereo not drawn) [Example 1517-05]
Response: 0

----------
TESTED_ON: Trypsin (type 1× from porcine pancreas) (Sus scrofa)
Construct: Trypsin (5 ug/ml; type 1× from porcine pancreas); purchased Sigma, St. Louis Mo; host or cells: porcine pancreas
EXPERIMENT_NOTES: Trypsin Assay
Format: biochemical
CONDITION_LABEL: at 30 µM
PROPERTY: % Inhibition Trypsin II (30 µM) (% @ 30)
Lab book: enter the figure in % @ 30, no units written.

[[record]]
structure = "Nc1cccc(-c2c(Cl)nc(NC3CCC3)c(=O)n2CC(=O)NCCc2ccccc2)c1"
property = "% Inhibition Trypsin II (30 µM)"
measured_value = 9

[[record]]
structure = "Nc1cccc(-c2c(Cl)nc(NC3CCC3)c(=O)n2CC(=O)NCc2ccccc2)c1"
property = "% Inhibition Trypsin II (30 µM)"
measured_value = 7


Query: Name the recorded % Inhibition Trypsin II (30 µM) of the compound listed here: N=C(N)c1ccc(CNC(=O)Cn2c(-c3ccccc3)c(Cl)nc(NCc3ccccn3)c2=O)cc1
Response: 25

----------
TESTED_ON: Trypsin (type 1× from porcine pancreas) (Sus scrofa, UniProt P00761)
Construct: Trypsin (5 ug/ml; type 1× from porcine pancreas); purchased Sigma, St. Louis Mo; host or cells: porcine pancreas
Sequence (P00761 9-231): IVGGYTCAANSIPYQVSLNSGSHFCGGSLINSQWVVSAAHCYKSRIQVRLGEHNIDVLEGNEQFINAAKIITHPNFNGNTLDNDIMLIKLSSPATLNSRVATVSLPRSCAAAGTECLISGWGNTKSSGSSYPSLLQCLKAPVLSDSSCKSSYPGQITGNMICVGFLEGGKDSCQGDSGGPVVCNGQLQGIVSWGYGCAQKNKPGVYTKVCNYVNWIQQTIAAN
EXPERIMENT_NOTES: Trypsin Assay
Assay type: biochemical
CONDITION_LABEL: inhibitor at 100 νM
PROPERTY: % Inhibition Trpysin II (100 νM) (%)
# value in %; strip the unit string

[[record]]
molecule = "O=C(Cn1c(CCc2ccccc2)c(Cl)nc(NCCc2ccncc2)c1=O)NCCc1ccncc1"
measured_value = 0

[[record]]
molecule = "O=C(Cn1c(-c2ccc(Cl)cc2)c(Cl)nc(NCCc2ccccc2)c1=O)NCCc1ccncc1 [Example E-0026]"
measured_value = 3

[[record]]
molecule = "O=C(Cn1c(-c2ccc(Cl)cc2)c(Cl)nc(NCCc2cccc(Cl)c2)c1=O)NCCc1ccncc1"
measured_value = 2

[[record]]
molecule = "O=C(Cn1c(Cc2ccccc2)c(Cl)nc(NCCc2ccncc2)c1=O)NCCc1ccncc1"
measured_value = 0


Query: Report % Inhibition Trpysin II (100 νM), nothing else, for this molecule: O=C(Cn1c(Cc2ccccc2)c(Cl)nc(NCCc2ccc(Cl)cc2)c1=O)NCCc1ccncc1
Response: 0

----------
Listing: pIC50 of selected molecules
TESTED_ON: Trypsin (type 1× from porcine pancreas) (Sus scrofa)
Construct: Trypsin (5 ug/ml; type 1× from porcine pancreas); purchased Sigma, St. Louis Mo; host or cells: porcine pancreas
EXPERIMENT_NOTES: Trypsin Assay
Assay type: biochemical
CONDITION_LABEL: cells without % sign; read-out: IC50 Trypsin II
The quantity pIC50 is defined as the negative base-10 logarithm of the molar concentration.

Query: Item CC(C(=O)NCc1ccc(C(=N)N)cc1)n1c(-c2ccccc2)c(Cl)nc(NCc2ccccc2)c1=O (stereo not drawn) [Example 1517-05] : provide pIC50
Response: 5.92

Query: Answer with reported pIC50 of CC(C(=O)NCc1ccc(C(=N)N)cc1)n1c(-c2ccccc2)c(Cl)nc(NC2CCC2)c1=O (stereo not drawn) [Example 1517-09]
Response: 5.82

Query: Answer with the recorded pIC50 for the molecule listed here: CC(C(=O)NCc1ccc(C(=N)N)cc1)n1c(-c2ccccc2)c(Cl)nc(NCCc2ccccc2)c1=O (stereo not drawn) [Example 1517-15]
Response: 5.82

----------
TESTED_ON: recombinant soluble tissue factor and recombinant human factor VIIa (TF-VIIa) (Homo sapiens, UniProt P08709)
Construct: conversion of coagulation factor VII to VIIa by Xa; purchased American Diagnostica, Greenwich Conn; host or cells: factor VIIa purchased; soluble TF made in house in E. coli
Sequence (P08709 213-466 limits assumed): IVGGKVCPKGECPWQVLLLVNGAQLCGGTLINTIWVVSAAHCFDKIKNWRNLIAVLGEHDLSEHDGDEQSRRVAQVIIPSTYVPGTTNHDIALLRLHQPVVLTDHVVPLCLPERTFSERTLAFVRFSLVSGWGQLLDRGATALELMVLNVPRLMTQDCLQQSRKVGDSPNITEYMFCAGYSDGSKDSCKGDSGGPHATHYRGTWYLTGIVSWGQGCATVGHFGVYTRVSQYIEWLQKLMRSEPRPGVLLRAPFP
Sequence (P08709 61-212 limits assumed): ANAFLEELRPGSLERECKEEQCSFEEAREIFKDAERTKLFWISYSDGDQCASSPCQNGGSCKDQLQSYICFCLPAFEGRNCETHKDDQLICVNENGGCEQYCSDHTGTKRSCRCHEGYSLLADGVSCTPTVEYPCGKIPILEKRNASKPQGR
Sequence (P13726 33-251 partner limits assumed): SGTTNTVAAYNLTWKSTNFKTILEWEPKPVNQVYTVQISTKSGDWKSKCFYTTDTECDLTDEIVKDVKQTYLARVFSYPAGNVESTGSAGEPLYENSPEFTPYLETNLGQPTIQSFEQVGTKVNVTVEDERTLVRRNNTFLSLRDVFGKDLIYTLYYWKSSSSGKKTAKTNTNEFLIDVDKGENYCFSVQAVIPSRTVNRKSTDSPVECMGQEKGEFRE
EXPERIMENT_NOTES: TF-VIIa Assay
Format: biochemical
CONDITION_LABEL: cells without % sign; read-out: IC50 TF-VIIa
PROPERTY: IC50 (µM)
Write the answer as a number in µM, unit excluded.

Known results for molecules:
[[record]]
molecule = "CCN(CC)CC(C)Nc1nc(Cl)c(-c2cccc(N)c2)n(CC(=O)NCc2ccc(C(=N)N)cc2)c1=O (centres unmarked) [1543-25]"
property = "IC50"
measured_value = 0.28

[[record]]
molecule = "CC(C(=O)NCc1ccc(C(=N)N)cc1)n1c(-c2ccccc2)c(Cl)nc(NCc2ccccc2)c1=O (centres unmarked) [Example 1517-05]"
property = "IC50"
measured_value = 4.6

[[record]]
molecule = "CC(C(=O)NCc1ccc(C(=N)N)cc1)n1c(-c2ccccc2)c(Cl)nc(NCCc2ccccc2)c1=O (centres unmarked) [Example 1517-15]"
property = "IC50"
measured_value = 3.1

[[record]]
molecule = "N=C(N)c1ccc(CNC(=O)Cn2c(-c3cccc(N)c3)c(Cl)nc(NC3CC4CCC3C4)c2=O)cc1 (centres unmarked) [1526-30]"
property = "IC50"
measured_value = 0.08

[[record]]
molecule = "CC(C(=O)NCc1ccc(C(=N)N)cc1)n1c(-c2ccccc2)c(Cl)nc(NC2CCC2)c1=O (centres unmarked) [Example 1517-09]"
property = "IC50"
measured_value = 2.6

[[record]]
molecule = "CC(C(=O)NCc1ccc(C(=N)N)cc1)n1c(-c2ccccc2)c(Cl)nc(NCc2ccccc2)c1=O (centres unmarked) [Example 1517-03]"
property = "IC50"
measured_value = 9

[[record]]
molecule = "CC(C(=O)NCc1ccc(C(=N)N)cc1)n1c(-c2ccccc2)c(Cl)nc(NC2CCC2)c1=O (centres unmarked) [Example 1517-11]"
property = "IC50"
measured_value = 3


Continue with the molecule presented below.
Query: Give IC50 for the following molecule: N=C(N)c1ccc(CNC(=O)Cn2c(-c3cccc(N)c3)c(Cl)nc(NCCCCCC(N)=O)c2=O)cc1 [1543-11]
Response: 0.07
